Each entry below carries its reported IC50, inhibition of IFNα secretion, CpG-A stimulated human PBMC.
- target.desc: T1, human BDCA2 (human, UniProt Q8WTT0 1-213)
- T1 sequence (looked up): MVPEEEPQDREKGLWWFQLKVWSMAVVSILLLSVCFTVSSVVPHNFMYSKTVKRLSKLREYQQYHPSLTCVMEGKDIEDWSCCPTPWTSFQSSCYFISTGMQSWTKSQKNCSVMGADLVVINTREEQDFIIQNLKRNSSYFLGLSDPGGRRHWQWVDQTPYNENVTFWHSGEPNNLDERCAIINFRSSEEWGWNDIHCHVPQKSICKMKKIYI
- measurement.notes: cell-based or functional assay
Your answer should be a plain number; it is taken to be in nM.

binder	measured
mab022c (antibody, V domains shown) VH: DVQLQESGPGLVKPSQSLSLTCSVTGYSITSGYYWNWIRQFPGNKLEWMGYISFDGTYNYNPSLKDRFSITRDTSKNQFFLKLNSVTTEDTATYYCARGVDYPKAMDWWGQGTSVTVSS VL: DIVLTQSPASLAVSLGQRATISCRASESVSMHVTHLIHWYQQKPGQPPKLLIYVASNLESGVPARFSGSGSETDFTLNIHPVEEEDAATYFCQQSFEDPWTFGGGTKLEIK	0.0324

### Prompt # return recorded IC50, inhibition of IFNα secretion, CpG-A stimulated human PBMC for entry mab033c (antibody, V domains shown) VH: EVQMVESGGDLVKPGDSLKLSCAASGFTFRSYGMSWVRQTPDKRLEWVATISSGDSYTYYPDSVKGRFTISRDNAKNTLYLQMSSLKSEDTALYYCARQIYYDYAYYFDFWGQGTTLTVSS VL: DIVLTQSPASLAVSLGQRATISCRASESVSFRTSHLMHWYQQKPGQPPKLLIYGASNLESGVPARFSGSGSETDFTLNIHPVEEEDAAAYFCQQSIEDPPTFGGGTKLEIK
### Response 0.00833
